test system: OVCAR-5 ovarian; assay: NCI tumour cell line growth inhibition, 48 h
This listing pairs molecules with measured TGI.

O=C(O)CCCc1cc2c(s1)-c1cccc3cccc-2c13
> 100 µM

Supply measured TGI of `CN(C)C=Nc1c2c(nc3ccccc13)CCCC2` in your reply.
> 100 µM

Supply measured TGI of `CCOC(=O)Cn1c(=O)[nH]c(=O)c2[nH]cnc21` in your reply.
> 100 µM

Supply measured TGI of `N/C(=N/N=C/c1cccc(F)c1)NO` in your reply.
> 100 µM

Supply measured TGI of CCOP(=O)(OCC)C(C)(CC)/N=C(\N)NC#N (stereo unspecified) in your reply.
> 100 µM

Supply measured TGI of `Cc1cc2nc(CC(C(F)(F)F)C(F)(F)F)oc2cc1C` in your reply.
25.7 µM

Supply measured TGI of COc1cc([C@@H]2c3cc4c(cc3[C@@H](NC(=O)c3ccc(OC(C)=O)cc3)C3COC(=O)[C@@H]32)OCO4)cc(OC)c1O (stereo partly specified) in your reply.
22.4 µM

Supply measured TGI of `CN1CCN(Cn2nc(-c3cc(F)c(Cl)cc3Cl)oc2=S)CC1` in your reply.
> 100 µM

Supply measured TGI of `Cc1ccc(Cc2n[nH]c(=O)n2N2C(=O)c3ccccc3C2=O)cc1` in your reply.
> 100 µM

Supply measured TGI of `NNC(=S)NN/C=C(\C=Nc1ccccc1)[N+](=O)[O-]` in your reply.
> 100 µM

Supply measured TGI of Cc1ccc(S(=O)(=O)OC2CSSCC2OS(=O)(=O)c2ccc(C)cc2)cc1 (stereo unspecified) in your reply.
38 µM

----------
test system: MDA-MB-231 breast; test: NCI tumour cell line growth inhibition, 48 h
METRIC_NAME: TGI (µM)
Respond numerically; units are µM and should not be typed.

The following molecules have reported results that may help.
COc1cccc(/C=C2\CCc3ccccc3C2=O)c1
87.6
ClCc1ccc(-c2ccc(Cn3cnc4c(Cl)ncnc43)cc2)cc1
3.73
COC1/C=C/OC2(C)Oc3c(C)c(O)c4c(O)c(c(C=NOC(c5ccccc5)c5ccccc5)c(O)c4c3C2=O)NC(=O)/C(C)=C/C=C/C(C)C(O)C(C)C(O)C(C)C(OC(C)=O)C1C (stereo not drawn)
3.49

Supply measured TGI of `CCCCCCn1c2c(c3c(O)cccc31)C(=O)c1ccccc1-2` in your reply.
33.4

----------
This listing pairs compounds with measured TGI.
tested on: MOLT-4 leukemia; experiment: NCI tumour cell line growth inhibition, 48 h

CN(CCCCN)c1ccc2c(=O)[nH][nH]c(=O)c2c1
> 100 µM

Supply measured TGI of `COc1cc(-c2ccc(=O)oc2C#Cc2ccccc2)cc(OC)c1OC` in your reply.
> 100 µM

Supply measured TGI of `CC/C(=C(/CC)c1ccc(O)cc1)c1ccc(O)cc1` in your reply.
66.4 µM

Supply measured TGI of COc1ccccc1[C@@H]1CCC2CC[C@@H](c3ccccc3OC)[N+]21Cc1ccccc1 (stereo partly specified) in your reply.
7.43 µM

Supply measured TGI of `COc1cc2c(cc1OC)-c1[nH]c3ccc([N+](=O)[O-])cc3c1CC(=O)N2` in your reply.
> 76.4 µM

Supply measured TGI of `C=CCn1c(=O)c(C(=O)NC(=O)OCC)cn(C2CCCCC2)c1=O` in your reply.
> 100 µM

Supply measured TGI of `NCCCCCCCCCn1c2c(c3ccccc3c1=O)C(=O)c1ccccc1-2` in your reply.
40.4 µM

Supply measured TGI of `COc1ccc(Oc2nc3c(N)cc(C(F)(F)F)cc3nc2-c2ccccc2)cc1` in your reply.
> 100 µM

Supply measured TGI of `O=C(NCCCc1cn[nH]c(=O)n1)c1cccc2nc3ccccc3nc12` in your reply.
> 100 µM

Supply measured TGI of COC(=O)CN(CC1O[C@@H]2OC(C)(C)O[C@@H]2C1NC(C)=O)C(=O)OCc1ccccc1 (stereo partly specified) in your reply.
> 100 µM

Supply measured TGI of `CN(C)C=Nc1c2c(nc3ccccc13)CCCC2` in your reply.
> 100 µM

----------
tested on: UO-31 renal; test: NCI tumour cell line growth inhibition, 48 h
This listing pairs compounds with measured TGI.

O=C1C(c2c(O)[nH]c3ccc(I)cc23)=Nc2ccccc21
14.4 µM

Supply measured TGI of `Cc1nc2cc(Nc3nc(Nc4ccc(F)cc4)nc(N4CCCC4)n3)ccc2n1Cc1ccccc1` in your reply.
2.92 µM

Supply measured TGI of CC(=O)Oc1cc(OC(C)=O)c2c(c1)OC(c1ccc(OC(C)=O)c(OC(C)=O)c1)CC2=O (configuration not stated) in your reply.
> 100 µM

Supply measured TGI of `COc1cc(/C=C/c2ccc(S(N)(=O)=O)cc2)cc(OC)c1` in your reply.
52 µM

Supply measured TGI of `C/C(CC(=O)Nc1ccc([N+](=O)[O-])cc1)=N\Nc1ccc([N+](=O)[O-])cc1[N+](=O)[O-]` in your reply.
> 100 µM

Supply measured TGI of CCOP(=O)(OCC)C(C)(CC)/N=C(\N)NC#N (configuration not stated) in your reply.
> 100 µM

Supply measured TGI of Nc1ccn(CCCC(c2ccccc2)P(=O)(O)O)c(=O)n1 (configuration not stated) in your reply.
> 100 µM

Supply measured TGI of `COC(=O)c1cc2c(nc1C)-c1ccccc1OS2(=O)=O` in your reply.
> 100 µM

Supply measured TGI of `NNc1ncnc2cccc(Cl)c12` in your reply.
> 100 µM

Supply measured TGI of `Cc1cc(C)c(C2=NO[C@@H]3C(=O)N(c4ccc(Cc5ccc(N6C(=O)[C@H]7C(c8c(C)cc(C)cc8C)=NO[C@H]7C6=O)cc5)cc4)C(=O)[C@H]23)c(C)c1` in your reply.
> 100 µM

Supply measured TGI of `Cc1ccc(Cc2n[nH]c(=O)n2N2C(=O)c3ccccc3C2=O)cc1` in your reply.
> 100 µM

Supply measured TGI of `Cn1cc(-c2ccc3nnc(C(F)(F)c4ccc5ncccc5c4)n3n2)cn1` in your reply.
> 100 µM

----------
tested on: RPMI-8226 leukemia; assay: NCI tumour cell line growth inhibition, 48 h
METRIC_NAME: TGI

COc1ccc2nc3c([N+](=O)[O-])ccc(NCCCN(C)C)c3c(N)c2c1
1.84 µM
Cc1cc2nc3c4cc([N+](=O)[O-])ccc4n(CCN(C)C)c3nc2cc1C
3.19 µM
COC(=O)[C@H](C)[C@@H]1CC[C@](C)(CCC2=C(C)CCCC2(C)C)OO1
> 25 µM
CC(C)(CO)NC(=O)c1cccs1
> 100 µM
O=c1cc(NNc2cccc(F)c2)[nH]c(=S)[nH]1
> 100 µM

Supply measured TGI of COc1ccc2c(c1)CC1N(C)CCC13CCCCC23 (configuration not stated) in your reply.
> 100 µM

Supply measured TGI of `CNC(=O)c1cc(Oc2cccc3nc(NC(=O)Nc4ccc(F)cc4F)ccc23)ccn1` in your reply.
> 50 µM

----------
test system: SF-268 CNS; test: NCI tumour cell line growth inhibition, 48 h
This listing pairs molecules with measured TGI.

NNC(=S)NN/C=C(\C=Nc1ccccc1)[N+](=O)[O-]
> 100 µM
Cc1cc(N(CCC#N)CCC#N)ccc1CC1N=C(c2ccccc2)OC1=O (stereo not given)
> 100 µM
Cc1cc(N)c2cc(NC(=O)Nc3ccc4nc(C)cc(N)c4c3)ccc2n1
> 100 µM
O=C1[C@H](O)[C@@H]2CCC[C@@]23CCCN13
> 100 µM
CCOC(=O)C1=C(C)N(c2ccc(Cl)cc2)C2(O)C=CC(Nc3ccc(Cl)cc3)=C3C(=O)N(c4ccccc4)C(=O)C312 (stereo not given)
20.1 µM
CN(C)CCCN=c1c2ccccc2n(C)c2[nH]c(=O)n(C)c(=O)c12
> 46.6 µM

Please find the next molecule below.
Supply measured TGI of `O=c1[nH]c(-c2ccc(Cl)cc2)cc2ccsc12` in your reply.
> 100 µM

----------
test system: OVCAR-5 ovarian; assay: NCI tumour cell line growth inhibition, 48 h
METRIC_NAME: TGI

The following compounds have reported results that may help.
COc1cc(/C=C/C2=NN(c3cccc(S(=O)(=O)O)c3)C3(C2)SCC(=O)N3c2nc3ccccc3s2)cc(OC)c1OC (stereo not given)
> 100 µM
CC(C)(/C=N/O)/[N+]([O-])=C/c1ccccc1
> 100 µM
Cc1cc(Cl)ccc1Nc1nc2c(s1)C(=O)c1ccccc1C2=O
8.61 µM
CCCCCCn1c2c(c3c(O)cccc31)C(=O)c1ccccc1-2
32.8 µM
CC(=O)OC12OC(C)(C3C(=O)N(c4ccccc4)C(=O)C31)N(c1ccccc1)C2=O (stereo not given)
> 100 µM

Give measured TGI for O=P(Nc1cccc(Cl)c1)(Oc1ccccc1)N(CCCl)CCCl (stereo not given) (OVCAR-5 ovarian).
28.8 µM

Give measured TGI for CCOC(=O)C(NC(=O)c1ccccc1)(Nc1ccc(S(=O)(=O)Nc2ccc(OC)nn2)cc1)C(F)(F)F (stereo not given) (OVCAR-5 ovarian).
> 100 µM

Give measured TGI for CCOC(=O)CP(=S)(S)c1ccccc1 (stereo not given) (OVCAR-5 ovarian).
> 100 µM

Give measured TGI for `COc1ccc2c(c1)C(=O)c1c-2c(OCCN2CCCCC2)nc2ccc(OC)cc12` (OVCAR-5 ovarian).
19.7 µM

Give measured TGI for `COC(=O)Cc1nn2c(nc1=O)sc1ccc3ccccc3c12` (OVCAR-5 ovarian).
> 100 µM

Give measured TGI for COCC1N=C(c2cc(OC)c(OC)c(OC)c2-c2cc3c(cc2[C@@H](C)O)OCO3)O[C@H]1c1ccccc1 (stereo not given in full) (OVCAR-5 ovarian).
> 100 µM

Give measured TGI for `CC(=O)Nc1ccc(C(=O)n2[nH]c(C)c(/C=C3\C(=O)C=Cc4ccccc43)c2=O)cc1` (OVCAR-5 ovarian).
> 100 µM

Give measured TGI for `O=c1[nH]c(-c2ccc([N+](=O)[O-])cc2)nc2ccc(Cl)cc12` (OVCAR-5 ovarian).
> 100 µM

Give measured TGI for COc1cc(C2c3cc4c(cc3OC(NNc3ccccc3)C2C)OCO4)cc(OC)c1O (stereo not given) (OVCAR-5 ovarian).
18 µM

Give measured TGI for Cc1ccc(O)cc1 (tested in a mixture with another compound) (OVCAR-5 ovarian).
> 100 µM
